Cited source for all entries: PubChem BioAssay AID1918949

- Test system: K24384-001-R-PDC complex spheroid viability
- assay_info: Anticancer human tumor K24384-001-R-PDC patient-derived pancreatic adenocarcinoma cell line growth inhibition
- assay_context: second compound 1 µM; first compound 0.316 µM; hits give low values
measurement_name: viability, T/C (%)
// note: answer is a bare numeric in %

Please review the following examples before continuing.
molecule: Nc1ncn(C2CC(O)C(CO)O2)c(=O)n1 (configuration not stated) + NC1CCC(NC2CC2c2ccccc2)CC1
tested_target: K24384-001-R-PDC complex spheroid viability
viability, T/C, %: 78.6
--
molecule: COc1cc(Nc2ncc3c(n2)-c2ccc(Cl)cc2C(c2c(F)cccc2OC)=NC3)ccc1C(=O)O + NC1CCC(NC2CC2c2ccccc2)CC1
tested_target: K24384-001-R-PDC complex spheroid viability
viability, T/C, %: 67.3
--
molecule: Nc1ncn(C2CC(O)C(CO)O2)c(=O)n1 (configuration not stated) + NC1CC1c1ccc(-c2cccc(O)c2)cc1
tested_target: K24384-001-R-PDC complex spheroid viability
viability, T/C, %: 72.5

Consider the molecule O=C(C=Cn1cnc(-c2cc(C(F)(F)F)cc(C(F)(F)F)c2)n1)NNc1cnccn1 + NC1CCC(NC2CC2c2ccccc2)CC1 and give its measured viability, T/C.
30.3

Same for COc1ccc([C@@H](O)c2cc(-c3ncnc4cc(N5CCOCC5)ccc34)c(F)cc2Cl)nn1 + NC1CC1c1ccc(-c2cccc(O)c2)cc1
95.2

Now the molecule CC1COCCN1c1cc(C2(S(C)(=N)=O)CC2)nc(-c2ccnc3[nH]ccc23)n1 (configuration not stated) + NC1CCC(NC2CC2c2ccccc2)CC1
84.3

Quick one: CC1COCCN1c1cc(-c2ccnn2C)c2ccnc(-c3ccn[nH]3)c2n1 (configuration not stated) + NC1CC1c1ccc(-c2cccc(O)c2)cc1
43.8

====

Measured viability, T/C accompanies every entry in the list below.
- Tested on: K24384-001-R-PDC complex spheroid viability
- assay_info: Anticancer human tumor K24384-001-R-PDC cell line growth inhibition;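 note: spheroids exposed to agents for seven days before luminescence viability reading; 100% = DMSO vehicle control viability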
- assay_context: second compound 0.1 µM; first compound 0.0949 µM; hits give low values
Your answer should be a plain number; it is taken to be in %.

Please review the following examples before continuing.
compound: CCN(c1cc(-c2ccc(CN3CCOCC3)cc2)cc(C(=O)NCc2c(C)cc(C)[nH]c2=O)c1C)C1CCOCC1 + NC1CCC(NC2CC2c2ccccc2)CC1
viability, T/C [%]: 80.6

compound: CCc1c2c(nc3ccc(O)cc13)-c1cc3c(c(=O)n1C2)COC(=O)[C@]3(O)CC + NC1CCC(NC2CC2c2ccccc2)CC1
viability, T/C [%]: 5.82

compound: O=C(C=Cc1cccc(S(=O)(=O)Nc2ccccc2)c1)NO + NC1CCC(NC2CC2c2ccccc2)CC1
viability, T/C [%]: 116

Now for another entry.
Would you mind telling me what viability, T/C value was observed for COc1cc(C2c3cc4c(cc3C(OC3OC5COC(C)OC5C(O)C3O)C3COC(=O)C23)OCO4)cc(OC)c1O (stereo unspecified) + NC1CC1c1ccc(-c2cccc(O)c2)cc1 ?
62.4

====

Examples of compounds with documented viability, T/C follow.
- Test system: K24384-001-R-PDC complex spheroid viability
- assay_info: Anticancer human tumor K24384-001-R-PDC cell line growth inhibition;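 note: spheroids exposed to agents for seven days before luminescence viability reading; 100% = DMSO vehicle control viability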
- assay_context: second compound 0.1 µM; first compound 0.316 µM; hits give low values
Report the value in % with no unit label.

Worked cases, answers included:
compound: CC1COCCN1c1cc(C2(S(C)(=N)=O)CC2)nc(-c2ccnc3[nH]ccc23)n1 (stereo not given) + NC1CCC(NC2CC2c2ccccc2)CC1
data_value: 91.1
--
compound: Nc1ncn(C2CC(O)C(CO)O2)c(=O)n1 (stereo not given) + NC1CCC(NC2CC2c2ccccc2)CC1
data_value: 79.5
--
compound: CC1COCCN1c1cc(C2(S(C)(=N)=O)CC2)nc(-c2ccnc3[nH]ccc23)n1 (stereo not given) + NC1CC1c1ccc(-c2cccc(O)c2)cc1
data_value: 95.3
--
compound: O=C(C=Cn1cnc(-c2cc(C(F)(F)F)cc(C(F)(F)F)c2)n1)NNc1cnccn1 + NC1CCC(NC2CC2c2ccccc2)CC1
data_value: 30.7

Then there is this compound:
What measured viability, T/C goes with CC1COCCN1c1cc(-c2ccnn2C)c2ccnc(-c3ccn[nH]3)c2n1 (stereo not given) + NC1CC1c1ccc(-c2cccc(O)c2)cc1 ?
46.9
